Data provenance is the Immune Epitope Database (IEDB).

# test target: HLA-A*02:01
# method description: IEDB peptide-MHC binding, purified MHC/competitive/fluorescence; bounds were set here for any values at or beyond the usual limits of such assays
# measurement setup: source organism: Vaccinia virus WR
readout label: IC50 (µM)
All answers are understood in µM, so give the number only.

Task item: Param item = `FMHEQGYSH` ; retrieve measured IC50.
Reply: 9.72

----------
# test target: HLA-A*23:01
# method description: IEDB peptide-MHC binding, purified MHC/direct/fluorescence; filed as Kd, often an IC50 or EC50 that approximates it; bounds were set here for any values at or beyond the usual limits of such assays
# measurement setup: source organism: Mycobacterium tuberculosis str. Haarlem
readout label: pKd
Expect pKd as a plain number equal to -log10 of the molar concentration.

Task item: Recorded pKd for `AYLFTPLFK` , please?
Reply: 6.45

----------
Would you kindly list pKd for each of these sequences?
# test target: HLA-A*29:02
# method description: IEDB peptide-MHC binding, purified MHC/competitive/radioactivity; filed as Kd, often an IC50 or EC50 that approximates it; bounds were set here for any values at or beyond the usual limits of such assays
# measurement setup: source organism: Vaccinia virus WR
pKd: −log10 of the molar value.

Task item: What pKd value was documented for this sequence, `IIVNNQESNK` ?
Reply: ≤ 4.17

Task item: Next up: `ESMASLKSLY`
Reply: ≤ 4.15

----------
# test target: HLA-B*15:02
# method description: IEDB peptide-MHC binding, purified MHC/direct/fluorescence; filed as Kd, often an IC50 or EC50 that approximates it; bounds were set here for any values at or beyond the usual limits of such assays
# measurement setup: source organism: Giardia lamblia ATCC 50803
readout label: Kd (µM)
// return numeric value only (unit: µM, not printed)

Task item: // lookup Kd | system=HLA-B*15:02 | key= `QLKQRDALF`
Reply: 0.029

----------
# test target: HLA-A*26:01
# method description: IEDB peptide-MHC binding, purified MHC/direct/fluorescence; filed as Kd, often an IC50 or EC50 that approximates it; bounds were set here for any values at or beyond the usual limits of such assays
# measurement setup: source organism: Pseudomonas aeruginosa UCBPP-PA14
pKd: −log10 of the molar value.
readout label: pKd

Task item: If you can, please state the reported pKd value of `SPADERAVA` .
Reply: ≤ 4.70

----------
Can you tell me Kd for the items I'm about to list?
# test target: HLA-B*58:01
# method description: IEDB peptide-MHC binding, purified MHC/direct/fluorescence; filed as Kd, often an IC50 or EC50 that approximates it; bounds were set here for any values at or beyond the usual limits of such assays
# measurement setup: source organism: Giardia lamblia ATCC 50803
All answers are understood in µM, so give the number only.

Task item: Would you kindly share the measured Kd for `RTHEESLRL` ?
Reply: 1.48

Task item: # repeat for `HSSVAGGLW`
Reply: 0.00374

----------
# test target: HLA-B*07:02
# method description: IEDB peptide-MHC binding, purified MHC/competitive/fluorescence; filed as Kd, often an IC50 or EC50 that approximates it; bounds were set here for any values at or beyond the usual limits of such assays
# measurement setup: source organism: Escherichia coli 536
readout label: Kd

Task item: # lookup: Kd of `YQAENSTAE`
Reply: ≥ 5 µM

----------
# test target: HLA-B*15:42
# method description: IEDB peptide-MHC binding, purified MHC/competitive/fluorescence; filed as Kd, often an IC50 or EC50 that approximates it; bounds were set here for any values at or beyond the usual limits of such assays
# measurement setup: source organism: Zaire ebolavirus
readout label: Kd

Task item: Reported Kd for `LEARVNLSV` : what is it?
Reply: ≥ 5 µM
